Source: patent US20190284293A1

Molecular target: CD16a-V158 (FcgRIIIa-V158) (Homo sapiens, UniProt P08637, F176V)
Sequence (P08637 17-208 F176V limits assumed): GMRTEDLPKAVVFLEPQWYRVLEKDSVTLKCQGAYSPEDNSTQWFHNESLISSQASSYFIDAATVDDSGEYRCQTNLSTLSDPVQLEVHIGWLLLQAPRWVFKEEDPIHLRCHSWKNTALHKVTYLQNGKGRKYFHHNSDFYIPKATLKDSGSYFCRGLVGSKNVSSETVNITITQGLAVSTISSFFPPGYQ
Experiment: SPR, antibody binding to anti-his Fab captured FcgR-his (% Rmax)
Conditions: 1 μM antibody
Experimental: The binding of antibodies to Fc gamma receptors (FcγRs or FcgRs) was studied using biosensor technologies including Biacore surface plasmon resonance (SPR) and Fortebio Biolayer Interferometry (BLI). […] Various his-tagged FcgRs (7 ug/ml) were captured via the C-terminal his-tag using a contact time of 30 s at 10 ul/min, and the binding of 1.0 μM antibody was evaluated in a running buffer of 10 mM NaPO4, 130 mM NaCl, 0.05% p20 (PBS-T) pH 7.1. […]
Reported % Rmax hCD16a-V158 values for the following molecules.

molecule	% Rmax hCD16a-V158 / %
mAb8-IgG2.5 (protein, left off: another chain or arm of the molecule) constant: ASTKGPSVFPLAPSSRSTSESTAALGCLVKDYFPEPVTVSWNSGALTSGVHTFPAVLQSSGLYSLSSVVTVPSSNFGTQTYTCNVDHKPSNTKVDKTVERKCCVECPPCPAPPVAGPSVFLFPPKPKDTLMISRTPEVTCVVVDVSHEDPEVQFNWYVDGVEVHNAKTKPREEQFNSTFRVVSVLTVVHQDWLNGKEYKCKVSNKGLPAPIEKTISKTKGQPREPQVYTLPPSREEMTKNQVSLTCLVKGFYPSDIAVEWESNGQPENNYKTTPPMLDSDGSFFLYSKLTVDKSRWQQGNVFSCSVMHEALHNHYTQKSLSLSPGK	2
mAb5-IgG2.5 (protein, left off: another chain or arm of the molecule) constant: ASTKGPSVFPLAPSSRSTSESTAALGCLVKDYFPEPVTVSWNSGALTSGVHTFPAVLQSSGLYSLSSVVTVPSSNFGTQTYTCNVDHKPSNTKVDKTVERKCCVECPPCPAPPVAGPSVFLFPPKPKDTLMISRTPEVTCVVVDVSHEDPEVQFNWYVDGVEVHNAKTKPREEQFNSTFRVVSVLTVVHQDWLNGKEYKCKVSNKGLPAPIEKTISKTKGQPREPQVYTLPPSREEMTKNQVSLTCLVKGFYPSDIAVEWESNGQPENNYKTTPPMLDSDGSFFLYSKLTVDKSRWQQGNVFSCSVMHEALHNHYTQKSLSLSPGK	4
